Overview of recorded Potency for various molecules
# test.description: qHTS of small molecules that selectively kill Giardia lamblia: Hit Validation.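 Further: viability measured as ATP content by luminescence so killing lowers signal; potency means the concentration at half of the fitted maximal effect; trophozoites exposed to compounds for 48 h anaerobically at 37 °C; nearly all actives have a fitted effect of over 65% in size.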
# settings: Giardia lamblia trophozoite viability, dose-response; series mostly up to 38.3 µM
Out of some 1,300 compounds screened, about 1,000 (77%) were called active. Roughly 7% stayed inconclusive and do not appear here. So high a share suggests a set chosen from earlier hits. Some of the results follow.

Use these answered entries as a reference point.
// CN1CCCN(c2ccc([N+](=O)[O-])nc2)CC1 : Potency value = 6.5 µM (active)

Reported Potency of COc1ccc(C[C@H]2NC[C@H](O)[C@H]2OC(C)=O)cc1 : 0.65 µM (active)

Quick note, Potency for CC(=O)OC[C@]12CCC(C)=C[C@H]1O[C@@H]1[C@H](O)[C@@H](OC(C)=O)[C@@]2(C)[C@]12CO2 landed at 5.16 µM (active)

Recorded Potency (molecule O=[N+]([O-])c1oc2ccc3ccccc3c2c1CCO ): 0.0516 µM (active)

Lab book: Potency of COC1/C=C/C=C(\C)Cc2cc(O)c(Cl)c(c2)N(C)C(=O)CC(OC(=O)C(C)C)C2(C)OC2C(C)C2CC1(O)NC(=O)O2 (stereo unspecified) noted as 0.46 µM (active)

Switching to the query record.
The recorded Potency for entry [Hg+][c]1ccccc1 equals 4.1 µM (active)
